assay: Half life period determined in human blood; type: ADME, organism-based; conditions: human blood
ENDPOINT: half-life (min)

These recorded examples may help you get a feel for the data.
>>> value_reported("CC(C)NCC(O)COc1ccc(CC(=O)OCC23CC4CC(CC(C4)C2)C3)cc1 (centres undefined)")
46.2
>>> value_reported("CC(C)NCC(O)COc1ccc(CC(=O)OC2CC3CCC2C3)cc1 (stereo in doubt; 3f)")
34.6

(P) CC(C)NCC(O)COc1ccc(CC(=O)OC2CC3CCC2(C)C3(C)C)cc1 (centres undefined)
(Q) CC(C)NCC(O)COc1ccc(CC(=O)OCC(=O)OC2CCCCC2)cc1 (centres undefined)
Req: Hello, I am sorting some records. Could you say if P or Q has the smaller half-life value? Could you answer with the label of the item you picked?
Resp: Q
(Q: 4.5 min, P: 770 min)

---

assay: Half life period determined in human blood; format: ADME, organism-based
ENDPOINT: half-life (min)
Answer format: numeric, min implied, no suffix.

Req: # lookup: half-life of CC(C)NCC(O)COc1ccc(CC(=O)OCCC23CC4CC(CC(C4)C2)C3)cc1 (stereo unspecified)
Resp: 6.9

---

species on record: Homo sapiens; assay: In vitro hydrolytic rate constant determined in human blood; format: ADME
ENDPOINT: K (min⁻¹)

Answered examples (5):
>>> value_reported("CC(C)NCC(O)COc1ccc(CC(=O)OC2CC3CCC2C3)cc1 (stereo in doubt; 3e)")
35000
>>> value_reported("COC(=O)CCc1ccc(OCC(O)CNC(C)C)cc1 (configuration not stated) [ESMOLOL]")
0.0033
>>> value_reported("CC(C)NCC(O)COc1ccc(CC(=O)OCC(=O)OC2CCCCC2)cc1 (configuration not stated)")
0.154
>>> value_reported("CC(C)NCC(O)COc1ccc(CC(=O)OC2CC3CCC2C3)cc1 (stereo in doubt; 3f)")
0.02
>>> value_reported("CC(C)NCC(O)COc1ccc(CC(=O)OCC23CC4CC(CC(C4)C2)C3)cc1 (configuration not stated)")
0.015

(a) CC(C)NCC(O)COc1ccc(CC(=O)OCCC23CC4CC(CC(C4)C2)C3)cc1 (configuration not stated) [ADAPROLOL]
(b) CC(C)NCC(O)COc1ccc(CC(=O)OC2CC3CCC2(C)C3(C)C)cc1 (configuration not stated)
Req: Given the listed items, does a or b have the lesser reported K? Return value: the label identifying the chosen record.
Resp: b

// data source = ChEMBL document CHEMBL1124188
